measured.target: human PD-1 (Jurkat-PD-1 cells) / PE-labeled human PD-L1-Ig (Homo sapiens)
Construct: expressed in transfected cells; host or cells: Jurkat cell line over-expressing human PD-1
method.description: Jurkat-PD-1 Cell Binding High-Content Screening Assay (CBA); Jurkat hPD1-PDL1 assay
reported.conditions: Jurkat cell line over-expressing human PD-1; PE-labeled PD-L1-Ig 20 nM final; compound incubated 2 hours at 37° C.; read-out: Jurkat HPD1-PDL1 IC50
Positions of bridges follow the written chain, without caps; N, C: chain ends. Non-standard residues stand in square brackets, D forms with d. Residues, ends and D or L forms follow the SMILES beside them. ξ: configuration not given here. Bip = N[C@@H](Cc1ccc(-c2ccccc2)cc1)C(=O)O; NMeF = CN[C@@H](Cc1ccccc1)C(=O)O; ξR = N=C(N)NCCCC(N)C(=O)O; NMeA = CN[C@@H](C)C(=O)O
measured.quantity: IC50 (nM)
Numbers only, in nM.

(Q) State, for human PD-1 (Jurkat-PD-1 cells) / PE-labeled human PD-L1-Ig (Homo sapiens), measured IC50 of the molecule listed here: CC(C)C[C@@H]1NC(=O)C(CCCNC(=N)N)NC(=O)[C@H](Cc2ccccc2)N(C)C(=O)[C@H](C)N(C)C(=O)[C@H](CCCNC(=N)N)NC(=O)[C@H](Cc2ccc(-c3ccccc3)cc2)NC(=O)[C@H](C(C)C)NC(=O)[C@H](Cc2c[nH]c3ccccc23)NC(=O)[C@H](CC(=O)O)NC(=O)[C@H](Cc2ccc(O)cc2)NC(=O)[C@H](Cc2ccccc2)NC(=O)CSC[C@@H](C(=O)NCC(N)=O)NC(=O)[C@H](CCC(=O)O)NC(=O)[C@H](C(C)C)NC1=O (stereo partly shown) [Example 1219] ({CH2CO}-FYDWV[Bip]R[NMeA][NMeF][ξR]LVECG-NH2; thioether N-14)
(A) 610

* * *

measured.target: human PD-1 (Jurkat-PD-1 cells) / PE-labeled human PD-L1-Ig (Homo sapiens, UniProt Q15116)
Construct: expressed in transfected cells; host or cells: Jurkat cell line over-expressing human PD-1
Sequence (Q15116 25-288): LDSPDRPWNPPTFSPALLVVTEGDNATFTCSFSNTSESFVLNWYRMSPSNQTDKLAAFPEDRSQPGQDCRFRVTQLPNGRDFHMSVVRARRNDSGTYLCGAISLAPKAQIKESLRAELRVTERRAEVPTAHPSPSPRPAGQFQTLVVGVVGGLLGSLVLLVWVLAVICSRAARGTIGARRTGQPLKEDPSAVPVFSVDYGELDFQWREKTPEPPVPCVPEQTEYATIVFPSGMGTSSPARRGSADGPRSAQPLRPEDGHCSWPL
method.description: Jurkat-PD-1 Cell Binding High-Content Screening Assay (CBA); Jurkat hPD1-PDL1 assay
reported.conditions: Jurkat cell line over-expressing human PD-1; PE-labeled PD-L1-Ig 20 nM final; compound incubated 2 hours at 37° C.; read-out: Jurkat HPD1-PDL1 IC50
Positions of bridges follow the written chain, without caps; N, C: chain ends. Non-standard residues stand in square brackets, D forms with d. Residues, ends and D or L forms follow the SMILES beside them. ξ: configuration not given here. Bip = N[C@@H](Cc1ccc(-c2ccccc2)cc1)C(=O)O; Orn = NCCC[C@H](N)C(=O)O; ξS = NC(CO)C(=O)O
measured.quantity: IC50

(Q) For the compound CC(C)C[C@@H]1NC(=O)[C@H](Cc2c[nH]c3ccccc23)NC(=O)[C@H](CC(=O)O)NC(=O)[C@H](Cc2ccc(O)cc2)NC(=O)[C@H](Cc2ccccc2)NC(=O)CSC[C@@H](C(=O)NCC(N)=O)NC(=O)C(CO)NC(=O)[C@H](C(C)C)NC(=O)[C@H](CC(C)C)NC(=O)[C@H](CC(N)=O)NC(=O)[C@H]2CCCN2C(=O)[C@H](CCCN)NC(=O)[C@H](C(C)C)NC(=O)[C@H](Cc2ccc(-c3ccccc3)cc2)NC1=O (stereo partly shown) [Example 1419] ({CH2CO}-FYDWL[Bip]V[Orn][dP]NLV[ξS]CG-NH2; thioether N-14) , give its measured IC50 value.
(A) 120 nM
